- testedSystem: T1, recombinant human HER2 extracellular domain protein (human, UniProt P04626 23-652)
- T1 construct: range 23-652; Range is printed for the immunogen/panning protein; also called ErbB2; recombinant HER2 protein
- assayNotes: BLI, Protein A capture
testReadout: Kd (nM)
The reply should contain only the number, in nM.

Look over these answered cases.
Hu2117HK-Mu14 (Fc fusion, scFv-hIgG1 Fc; not shown: human IgG1 Fc) scFv: EVQLVESGGGLVQPGGSLRLSCAASGFTYSSYGMSWVRQAPGKGLEWVASISGGGSYTKYPGSVKGRFTISRDNSKNTLYLQMNSLRAEDTAVYYCARDYAGFFDVWGQGTLVTVSSGGGGSGGGGSGGGGSDIQMTQSPSSLSASVGDRVTITCRSSQSLVHSNGNTYLHWYQQKPGKAPKLLIYKVSNRFSGVPSRFSGSGSGTDFTLTISSLQPEDFATYFCSQSTHVPYTFGQGTKVEIK | 7.16
Hu2117HK-Mu01 (Fc fusion, scFv-hIgG1 Fc; not shown: human IgG1 Fc) scFv: EVQLVESGGGLVQPGGSLRLSCAASGFTYSSYGMSWVRQAPGKGLEWVASISGGGSYTKYPDSVKGRFTISRDNSKNTLYLQMNSLRAEDTAVYYCARDYAGFFDVWGQGTLVTVSSGGGGSGGGGSGGGGSDIQMTQSPSSLSASVGDRVTITCRSSQSLVHSNGNTYLHWYQQKPGKSPKLLIYKVSNRFSGVPSRFSGSGSGTDFTLTISSLQPEDFATYFCSQSTHVPYTFGQGTKVEIK | 8.33
Hu2117HK-Mu43 (Fc fusion, name in Kabat numbering, scFv-hIgG1 Fc; not shown: human IgG1 Fc) scFv: EVQLVESGGGLVQPGGSLRLSCAASGFTYSSYGMSWVRQAPGKGLEWVASISGGGSYTKYPDSVKGRFTISRDNSKNTLYLQMNSLRAEDTAVYYCARDYDGFFDVWGQGTLVTVSSGGGGSGGGGSGGGGSDIQMTQSPSSLSASVGDRVTITCRSSQSLVHSNGNTYLHWYQQKPGKAPKLLIYKVSNRFSGVPSRFSGSGSGTDFTLTISSLQPEDFATYFCSQSTHVPYTFGQGTKVEIK | 56.7
Hu2117HK-Mu39 (Fc fusion, scFv-hIgG1 Fc; not shown: human IgG1 Fc) scFv: EVQLVESGGGLVQPGGSLRLSCAASGFTYSNYGMSWVRQAPGKGLEWVASISGGGSYTKYPDSVKGRFTISRDNSKNTLYLQMNSLRAEDTAVYYCARDYAGFFDVWGQGTLVTVSSGGGGSGGGGSGGGGSDIQMTQSPSSLSASVGDRVTITCRSSQSLVHSNGNTYLHWYQQKPGKAPKLLIYKVSNRFSGVPSRFSGSGSGTDFTLTISSLQPEDFATYFCSQSTHVPYTFGQGTKVEIK | 12.3
Hu2117HK-Mu04 (Fc fusion, scFv-hIgG1 Fc; not shown: human IgG1 Fc) scFv: EVQLVESGGGLVQPGGSLRLSCAASGFTYSSYGMSWVRQAPGKGLEWVASISGGGSYTKYPDSVKGRFTISRDNSKNTLYLQMNSLRAEDTAVYYCARDYAGFFDVWGQGTLVTVSSGGGGSGGGGSGGGGSDIQLTQSPSSLSASVGDRVTITCRSSQSLVHSNGNTYLHWYQQKPGKAPKLLIYKVSNRFSGVPSRFSGSGSGTDFTLTISSLQPEDFATYFCSQSTHVPYTFGQGTKVEIK | 9.88
Hu2117HK-Mu32 (Fc fusion, scFv-hIgG1 Fc; not shown: human IgG1 Fc) scFv: EVQLVESGGGLVQPGGSLRLSCAASGFTYSSYGMSWVRQAPGKGLEWVASISGGGSYTKYPDSVKGRFTISRDNSKNTLYLQMNSLRAEDTAVYYCARDYAGFFDVWGQGTLVTVSSGGGGSGGGGSGGGGSDIQMTQSPSSLSASVGDRVTITCRSSQSLVSSNGNTYLHWYQQKPGKAPKLLIYKVSNRFSGVPSRFSGSGSGTDFTLTISSLQPEDFATYFCSQSTHVPYTFGQGTKVEIK | 6.09

Please give the measured Kd for this binder: Hu2117HK-Mu13 (Fc fusion, scFv-hIgG1 Fc; also called Hu2117HK-Mul3; not shown: human IgG1 Fc) scFv: EVQLVESGGGLVQPGGSLRLSCAASGFTYSSYGMSWVRQAPGKGLEWVASISGGGSYTKYPDSVKGRFTISRDNSKNTLYLQMNSLRAEDTAVYYCARDYAGFFDVWGQGTLVTVSSGGGGSGGGGSGGGGSDIQMTQSPSSLSASVGDRVTITCRSSQSLVHSNGNTYLHWYQQKPGKAPKLLIYKVSNRFSGVPSRFSGSGSGTDFTLTISSLQPEDFATYYCSQSTHVPYTFGQGTKVEIK
6.05

Which Kd is listed for Hu2117HK-Mu38 (Fc fusion, scFv-hIgG1 Fc; not shown: human IgG1 Fc) scFv: EVQLVESGGGLVQPGGSLRLSCAASGFTYNNYGMSWVRQAPGKGLEWVASISGGGSYTKYPDSVKGRFTISRDNSKNTLYLQMNSLRAEDTAVYYCARDYAGFFDVWGQGTLVTVSSGGGGSGGGGSGGGGSDIQMTQSPSSLSASVGDRVTITCRSSQSLVHSNGNTYLHWYQQKPGKAPKLLIYKVSNRFSGVPSRFSGSGSGTDFTLTISSLQPEDFATYFCSQSTHVPYTFGQGTKVEIK ?
12.1

Given the binder Hu2117HK-Mu28 (Fc fusion, scFv-hIgG1 Fc; not shown: human IgG1 Fc) scFv: EVQLVESGGGLVQPGGSLRLSCAASGFTYSSYGMSWVRQAPGKGLEWVASISGGGSYTKYPDSVKGRFTISRDNSKNTLYLQMNSLRAEDTAVYYCARDYAGFFDVWGQGTLVTVSSGGGGSGGGGSGGGGSDIQMTQSPSSLSASVGDRVTITCRSSQSLVHSNTNTYLHWYQQKPGKAPKLLIYKVSNRFSGVPSRFSGSGSGTDFTLTISSLQPEDFATYFCSQSTHVPYTFGQGTKVEIK , what is its reported Kd?
7.15

Record request: Kd value, item Hu2117HK-Mu11 (Fc fusion, scFv-hIgG1 Fc; not shown: human IgG1 Fc) scFv: EVQLVESGGGLVQPGGSLRLSCAASGFTYSSYGMSWVRQAPGKGLEWVASISGGGSYTKYPDSVKGRFTISRDNSKNTLYLQMNSLRAEDTAVYYCARDYAGFFDVWGQGTLVTVSSGGGGSGGGGSGGGGSDIQMTQSPSSLSASVGDRVTITCRSSQSLVHSNGNTYLHWYQQKPGKAPKLLIYKVSNRDSGVPSRFSGSGSGTDFTLTISSLQPEDFATYFCSQSTHVPYTFGQGTKVEIK
9.41
